- assayed_target: Human TASK-1 channels (Homo sapiens (Human))
- assay_remarks: Determination of the activity on the TASK-1 channel in Xenopus oocytes (two-microelectrode voltage clamp)
- condition_description: human TASK-1 expressed in Xenopus oocytes, room temperature; read-out: IC50 value for TASK-1 inhibition
- Description: Determination of the activity on the TASK-1 channel in Xenopus oocytes Human TASK-1 channels were expressed in Xenopus oocytes. For this purpose, oocytes were isolated from Xenopus laevis and defoliculated. […] After two days of TASK-1 protein expression, TASK-1 currents were measured by two-microelectrode voltage clamp. […] Oocytes were clamped to −90 mV and TASK-1 mediated currents were measured during 500 ms voltage pulses to 40 mV. […]
reported_endpoint: pIC50
By convention, pIC50 is the negative base-10 log of a molar concentration.

Q. Given COC(=O)[C@H]1CCCN1C(=O)c1cc(C(=O)N[C@@H](c2ccc(F)cc2)C(C)C)n2c1COCC2 [16ln] , respond with its pIC50.
A. 6.85

Q. Please look at this molecule and report its pIC50: CC[C@@H](NC(=O)c1cc(C(=O)N[C@H](CC)c2ccccc2)n2c1COCC2)c1ccccc1 [16i]
A. 6.80

Q. Quote pIC50 reported for CC[C@@H](NC(=O)c1cc(C(=O)N[C@H](CC)c2cccc(O)n2)n2c1COCC2)c1ccccc1 [16rh] please.
A. 6.62

Q. Give me measured pIC50, please, for this molecule: CC[C@@H](NC(=O)c1cc(C(=O)N2CCC[C@@H]2C)n2c1COCC2)c1ccncc1Cl [16bw]
A. 5.92

Q. Respond only with pIC50 recorded for CC[C@@H](NC(=O)c1cc(C(=O)N2CCC[C@@H]2C)n2c1COCC2)c1ccc(OC)nc1 [16ai]
A. 5.85

Q. Report pIC50 for CC[C@@H](NC(=O)c1cc(C(=O)N[C@H](CC)c2cccc(S(C)(=O)=O)c2)n2c1COCC2)c1ccccc1 [16jh]
A. 6.11

Q. Tell me pIC50 reported for CC[C@@H](NC(=O)c1cc(C(=O)N[C@H](C)c2ccc(F)cc2)c2n1CCOC2)c1ncccn1 [16nv]
A. 6.77

Q. Supply pIC50 value. Item: CC[C@@H](NC(=O)c1cc(C(=O)N2CCC[C@@H]2C)n2c1COCC2)c1ccc(C#N)c(Cl)c1 [16d]
A. 6.62

Q. Answer with the recorded pIC50 of CC[C@@H](NC(=O)c1cc(C(=O)NC(C)c2cnc(OC)cn2)n2c1COCC2)c1ccccc1 (stereo partly drawn) [16iv] only.
A. 6.92

Q. Give pIC50 for the following molecule: CC[C@@H](NC(=O)c1cc(C(=O)N(C)Cc2ccccn2)n2c1COCC2)c1ccccc1 [16gw]
A. 6.11

Q. Report measured pIC50; entry is CC[C@@H](NC(=O)c1cc(C(=O)NC(C)c2ccno2)n2c1COCC2)c1ccccc1 (stereo partly drawn) [16hh]
A. 6.00

Q. Identify the reported pIC50 for the following entry. C[C@H]1CCCN1C(=O)c1cc(C(=O)N[C@@H]2CCc3nc(C(F)(F)F)ccc32)c2n1CCOC2 (racemic) [16cv]
A. 6.05

###

For each record, write down the corresponding pIC50.
- assayed_target: Human TASK-1 channels (Homo sapiens (Human))
- assay_remarks: Determination of the activity on the TASK-1 channel in Xenopus oocytes (two-microelectrode voltage clamp)
- condition_description: human TASK-1 expressed in Xenopus oocytes, room temperature; read-out: IC50 value for TASK-1 inhibition
Scale note: pIC50 = -log10(concentration in M).

Q. Annotate the compound CC[C@@H](NC(=O)c1cc(C(=O)NCc2cccc(C(=O)OC)c2)n2c1COCC2)c1ccccc1 [16iq] with its measured pIC50.
A. 6.48

Q. Return value of pIC50 for input CC[C@@H](NC(=O)c1cc(C(=O)N(CCO)CC2CC2)n2c1COCC2)c1ccccc1 [16hk] , no commentary.
A. 5.85

Q. Answer with the recorded pIC50 for the compound listed here: CCOC(=O)C[C@H]1CCCN1C(=O)c1cc(C(=O)N[C@H](C)c2ccc(F)cc2)n2c1COCC2 [16dl]
A. 7.21

###

- assayed_target: Human TASK-1 channels (Homo sapiens (Human))
- assay_remarks: Determination of the activity on the TASK-1 channel in Xenopus oocytes (two-microelectrode voltage clamp)
- condition_description: human TASK-1 expressed in Xenopus oocytes, room temperature; read-out: IC50 value for TASK-1 inhibition
IC50 strictly under 200 nM means true (1); at 200 nM or over means false (0).

Q. Hello, is IC50 of the following compound strictly smaller than 200 nM? CCOC(=O)CNC(=O)c1cc(C(=O)N[C@H](CC)c2ccccc2)c2n1CCOC2 [16k]
A. true (1)

Q. Lab log: compare recorded IC50 with 200 nM; is it strictly lower for CC(NC(=O)c1cc(C(=O)N[C@@H](c2ccc(F)cc2)C(C)C)n2c1COCC2)c1ccno1 (some centres unmarked) [16lk] ?
A. false (0)

Q. # TODO verify IC50 < 200 nM strictly for this compound: CC[C@@H](NC(=O)c1cc(C(=O)N2CCC[C@@H]2C)n2c1COCC2)c1ncccc1Cl [16pf]
A. true (1)

Q. Item CC[C@@H](NC(=O)c1cc(C(=O)N2CCC[C@@H]2C)n2c1COCC2)c1ccc(Cl)cc1 [16pg] : IC50 beneath 200 nM, strictly?
A. true (1)

Q. Does this compound meet the criterion IC50 < 200 nM? CC(C)[C@@H](NC(=O)c1cc(C(=O)N2CCC[C@@H]2C)n2c1COCC2)c1ccc(C#N)nc1 [16am]
A. false (0)

Q. Decide: IC50 of CC[C@@H](NC(=O)c1cc(C(=O)NCc2cnccn2)n2c1COCC2)c1ccc(F)cc1Cl [16no] strictly below 200 nM?
A. true (1)

Q. Does the reported IC50 of CC[C@@H](NC(=O)c1cc(C(=O)N(C)CC2CCOCC2)n2c1COCC2)c1ccccc1 [16gd] stay below 200 nM?
A. false (0)

Q. Bench note: check whether CC[C@@H](NC(=O)c1cc(C(=O)N2CCC[C@@H]2C)n2c1COCC2)c1ccc(Cl)c(C(F)(F)F)c1 [16cs] shows IC50 below 200 nM
A. false (0)

Q. Does the reported IC50 of CC[C@H](NC(=O)c1cc(C(=O)N[C@H](C)c2ccc(F)cc2)n2c1COCC2)c1ncc(C(F)(F)F)cn1 [16ee] stay below 200 nM?
A. false (0)

###

Give measured log10(IC50) for each item. Keep answers brief.
- assayed_target: Human TASK-1 channels (Homo sapiens (Human), UniProt O14649)
- Sequence (O14649 whole entry): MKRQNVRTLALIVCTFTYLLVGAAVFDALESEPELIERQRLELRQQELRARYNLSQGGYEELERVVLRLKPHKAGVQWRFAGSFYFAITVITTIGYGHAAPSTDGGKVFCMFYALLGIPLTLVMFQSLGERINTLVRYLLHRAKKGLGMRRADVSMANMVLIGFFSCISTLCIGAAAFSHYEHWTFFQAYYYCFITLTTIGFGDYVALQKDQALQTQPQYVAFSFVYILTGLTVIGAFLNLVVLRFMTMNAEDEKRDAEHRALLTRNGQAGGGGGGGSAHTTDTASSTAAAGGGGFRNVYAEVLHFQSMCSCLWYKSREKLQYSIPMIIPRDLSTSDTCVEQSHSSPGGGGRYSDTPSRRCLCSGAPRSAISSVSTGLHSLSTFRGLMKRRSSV
- assay_remarks: Determination of the activity on the TASK-1 channel in Xenopus oocytes (two-microelectrode voltage clamp)
- condition_description: human TASK-1 expressed in Xenopus oocytes, room temperature; read-out: IC50 value for TASK-1 inhibition
Base-10 log of IC50, unit nM.

Q. Hello, please tell me recorded log10(IC50) for this one: CC[C@@H](NC(=O)c1cc(C(=O)NCc2c(C)noc2C)n2c1COCC2)c1ccccc1 [16pq]
A. 2.81

Q. Tell me measured log10(IC50) for CC[C@H](NC(=O)c1cc(C(=O)N[C@H](CC)c2ccccc2)n2c1COCC2)c1ncccn1 [16ke] please.
A. 2.34

Q. Give a short answer stating reported log10(IC50) for CC[C@@H](NC(=O)c1cc(C(=O)Nc2ccc(F)cn2)n2c1COCC2)c1ccccc1 [16hc] .
A. 2.26

Q. Identify measured log10(IC50) corresponding to CC(NC(=O)c1cc(C(=O)N[C@@H](c2ccc(F)cc2)C(C)C)n2c1COCC2)c1cnccn1 (single isomer, unassigned) [16lp]
A. 2.74

Q. Give log10(IC50) for CC[C@@H](NC(=O)c1cc(C(=O)N[C@H](C)c2ccc(F)cc2)n2c1COCC2)c1ccc(C(F)(F)F)nc1 [16g]
A. 2.46

Q. Kindly indicate its recorded log10(IC50). Item: CC[C@H](NC(=O)c1cc(C(=O)N2CCC[C@@H]2C)n2c1COCC2)c1ccc(C(F)(F)F)nc1 [16bj]
A. 3.61

Q. Query log10(IC50) for CC[C@H]1CCCN1C(=O)c1cc(C(=O)N[C@H](CC)c2ccccc2)c2n1CCOC2 (racemic) [16fc]
A. 1.40

Q. State, in one line, measured log10(IC50) of CC[C@@H](NC(=O)c1cc(C(=O)N2CCC[C@@H]2C)n2c1COCC2)c1ccc(Cl)c(Cl)c1 [16ci]
A. 1.48

Q. State, in one line, measured log10(IC50) of CC[C@@H](NC(=O)c1cc(C(=O)N2CCOCC2)n2c1CCCC2)c1ccccc1 [16nc]
A. 3.30

Q. Dear colleague, please send me the reported log10(IC50) for CC[C@@H](NC(=O)c1cc(C(=O)NCc2c(C)noc2C)c2n1CCOC2)c1ccccc1 [16jl] when you can.
A. 3.51

Q. Please look at this compound and report its log10(IC50): CC[C@@H](NC(=O)c1cc(C(=O)NCc2ncco2)n2c1COCC2)c1ccccc1 [16ha]
A. 2.54

Q. Specify measured log10(IC50) for CC[C@@H](NC(=O)c1cc(C(=O)NC2CCCCC2)n2c1CCCC2)c1ccccc1 [16ml] .
A. 2.11

Q. Read the entry CC(C)[C@@H](NC(=O)c1cc(C(=O)N2CCC[C@@H]2C)n2c1COCC2)c1ccc(C(F)(F)F)nc1 [16aq] and write its reported log10(IC50).
A. 2.66

Q. Indicate the recorded log10(IC50) value for this compound: CC[C@@H](NC(=O)c1cc(C(=O)N[C@H](CC)c2cncc(C(F)(F)F)c2)n2c1COCC2)c1ccccc1 [16hn]
A. 2.84

Q. Annotate the compound CC[C@@H](NC(=O)c1cc(C(=O)N2CCC[C@@H]2C)n2c1COCC2)c1ccc(Br)s1 [16bg] with its measured log10(IC50).
A. 2.45

Q. Specify reported log10(IC50) for the compound shown: CC[C@@H](NC(=O)c1cc(C(=O)N[C@H](CC)c2cccnc2C(F)(F)F)n2c1COCC2)c1ccccc1 [16hm]
A. 2.82

Q. Read off the recorded log10(IC50) for CC[C@@H](NC(=O)c1cc(C(=O)N2CCCC2c2c(C)noc2C)n2c1COCC2)c1ccccc1 (stereo partly drawn) [16er]
A. 2.51

Q. Please give measured log10(IC50) of the following entry: CC[C@@H](NC(=O)c1cc(C(=O)N[C@H](C)C2CC2)n2c1CCCC2)c1ccccc1 [16mw]
A. 1.87
